Here, each record is paired with measured AUClast data.
- Test summary: Determination of inhibitor concentration in mouse plasma after intraperitoneal and oral dosing
- Type: in vivo
- Reported conditions: IP, 25 mg/kg, vehicle PEG400:H2O pH 2.3 60:40
- Experimental: Blood collection was via ocular bleed at 0.5, 1, 4 hr with the final time point, 7 hour, via intracardiac puncture. The blood was centrifuged to collect plasma, which was then stored at −80° C. until analysis. Samples were prepared for analysis using an internal standard and sodium hydroxide. […] The samples were then analyzed via HPLC or LC-MS. Compound levels were quantitated by generating a standard curve of known compound concentration in mouse plasma.
Measured metric: AUClast (ng·h/mL)

> print(dat)
                                    compound  measured.metric  endpoint.result
 1  Cc1ccc2cc(NC(=O)c3ccccc3Sc3ccc4c(/C=C/c5ccccn5)n[nH]c4c3)ccc2n1          AUClast            11245
 2  Cc1cc(C(=O)Nc2cccc(C(=O)c3ccc4c(/C=C/c5ccccn5)n[nH]c4c3)c2)n[nH]1          AUClast             1925
 3  O=C(Nc1cccc(Cl)c1)c1ccccc1Sc1ccc2c(/C=C/c3ccccn3)n[nH]c2c1          AUClast             5080
 4  O=C(Nc1cccc(C(=O)c2ccc3c(/C=C/c4ccccc4)n[nH]c3c2)c1)c1ccncc1          AUClast            23205
 5  CC(=O)c1ccc(C(=O)Nc2cccc(C(=O)c3ccc4c(/C=C/c5ccccn5)n[nH]c4c3)c2)s1 [Example 41(e)]          AUClast             4900
 6  O=C(Nc1cccc(C(=O)c2ccc3c(/C=N/n4cccc4)n[nH]c3c2)c1)c1ccccc1          AUClast            11361
 7  O=C(Nc1cccc(C(=O)c2ccc3c(/C=C/c4ccccn4)n[nH]c3c2)c1)c1ccccc1          AUClast            19899
 8  O=C(Nc1cccc(C(=O)c2ccc3c(-c4nc5ccccc5[nH]4)n[nH]c3c2)c1)c1ccccc1          AUClast             3207
 9  O=C(c1cccc(NC(=O)c2ccccn2)c1)c1ccc2c(/C=C/c3ccccc3)n[nH]c2c1          AUClast              428
10  O=C(Nc1cccc(C(=O)c2ccc3c(-c4nc5cccnc5[nH]4)n[nH]c3c2)c1)c1ccccc1          AUClast             1774
11  C/C=C/C(=O)Nc1cccc(C(=O)c2ccc3c(/C=C/c4ccccn4)n[nH]c3c2)c1          AUClast             3397
12  O=C(c1cccc(NC(=O)c2ccccn2)c1)c1ccc2c(/C=C/c3ccccn3)n[nH]c2c1          AUClast             6659
13  O=C(c1cccc(NC(=O)c2cccc3[nH]ccc23)c1)c1ccc2c(/C=C/c3ccccn3)n[nH]c2c1          AUClast            10324
